I'd be grateful if you could share measured Yield (BMP-12 recovered from resin) for these entries.
- ASSAY_TARGET: BMP-12 (Homo sapiens, UniProt Q7Z4P5)
- Sequence (Q7Z4P5 322-450): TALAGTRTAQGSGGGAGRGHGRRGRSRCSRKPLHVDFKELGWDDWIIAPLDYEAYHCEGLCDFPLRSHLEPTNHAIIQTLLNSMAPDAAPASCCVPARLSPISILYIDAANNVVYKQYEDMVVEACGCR
- METHOD_DESCRIPTION: Filter-plate binding and elution of BMP-12 on peptide-coupled affinity resins
- COND: loaded in condition 5: 25 mM HEPES pH 7.0
No end group written: not given here.
Numeric answer only, unit % assumed.

Recorded Yield (BMP-12 recovered from resin) of Ac-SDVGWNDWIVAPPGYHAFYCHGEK [Peptide 750] , please.
109

// query Yield (BMP-12 recovered from resin) value for entry Ac-VAPPGYHAFYSHGEK [Peptide 745]
103

Record request: Yield (BMP-12 recovered from resin) value, item Ac-LYV**SDVGWNDWIVK (Ac-LYVSDVGWNDWIVK; not fully specified (residue 3); printed as Ac-LYV**SDVGWNDWIVK) [Peptide 746]
100

Reported Yield (BMP-12 recovered from resin), substance Ac-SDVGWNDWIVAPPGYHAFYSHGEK [Peptide 751] : ____
107

For Ac-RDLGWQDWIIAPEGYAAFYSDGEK [Peptide 748] , what is its reported Yield (BMP-12 recovered from resin)?
87

Please give the measured Yield (BMP-12 recovered from resin) for this substance: Ac-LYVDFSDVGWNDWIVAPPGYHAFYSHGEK [Peptide 747]
90

Yield (BMP-12 recovered from resin) lookup needed for Ac-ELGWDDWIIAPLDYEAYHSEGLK [Peptide 749] , thanks.
102
